assay: Acute toxicity, oral; settings: mouse, in vivo, male ICR mice, in aqueous 1% CMC, roughly calculated from mortalities at 2.5 and 5.0 g/kg body weight
readout.type: LD50 (mg/kg)
Give the value in mg/kg but do not write mg/kg after it.

Asked: State its LD50: O=C(O)c1cccnc1 [Nicotinic acid, reference compound]
Given back: 4500

---

test system: male SD rats; experiment: Pharmacological test against hypercholesterolemia (high cholesterol diet rats); format: in vivo; conditions: beta-lipoprotein-cholesterol (heparin-calcium precipitation); high cholesterol diet for 7 days; oral 200 mg/kg/day for 7 consecutive days; blood after 20 hours of fasting
readout.type: Reduction Percentage Cholesterol in beta-lipoprotein

Asked: State its Reduction Percentage Cholesterol in beta-lipoprotein: "CCCCCCCCCCCCCc1cc(C(=O)NCC(=O)OCC)n[nH]1"
Given back: 32.7

Asked: State its Reduction Percentage Cholesterol in beta-lipoprotein: "CCCCCCCCCCCCCc1cc(C(=O)O)nn1C"
Given back: 57.3

Asked: State its Reduction Percentage Cholesterol in beta-lipoprotein: CCCCCCCCCCCCCc1cc(CO)n[nH]1 [3-hydroxymethyl-5-n-tridecylpyrazole]
Given back: 25.2

Asked: State its Reduction Percentage Cholesterol in beta-lipoprotein: "CCCCCCCCCCCCCc1cc(C(=O)O)n[nH]1"
Given back: 54.3
